Test system: OVCAR-8 ovarian
Test: NCI-60 one-dose screen, 48 h (100 = growth as untreated, 0 = no growth, -100 = all killed)
Conditions: 10 µM unless noted
Compounds without any hit were thinned out: in the full panel of roughly 83,000, 20% have a hit.
parameter: growth (%)
State just the number; it will be interpreted in %.

Measured growth for this entry "CN1/C(=C\C=C\C2=[N+](C)c3ccccc3C2(C)C)C(C)(C)c2ccccc21" on OVCAR-8 ovarian: 1.34

Measured growth for this entry "Nc1ccc(N2CCOCC2)cc1" on OVCAR-8 ovarian: 105

Measured growth for this entry "O=C(/C=C/c1cc2ccccc2[nH]c1=O)/C=C/c1cc2ccccc2[nH]c1=O" on OVCAR-8 ovarian: 4.07

Measured growth for this entry "C[C@]12C[C@@H](c3ccoc3)OC(=O)[C@@H]1CC[C@]1(C)[C@@H]2CC[C@@H](O)[C@]1(C)O" on OVCAR-8 ovarian: 104

Measured growth for this entry "Cc1ccc2c(c1)C(=O)/C(=C/c1ccc(OCC(=O)c3ccccc3)cc1)O2" on OVCAR-8 ovarian: 106

Query molecule follows.
Measured growth for this entry "Nc1cc2ccncc2c2ccccc12" on OVCAR-8 ovarian: 57.6

* * *

System: K-562 leukemia
Test: NCI-60 one-dose screen, 48 h (100 = growth as untreated, 0 = no growth, -100 = all killed)
Conditions: 10 µM unless noted
This is part of a sample that, as a whole, favours compounds with a hit. Of some 83,000 tested, about 20% had one in any assay.
parameter: growth (%)
State just the number; it will be interpreted in %.

// growth value for "c1ccc2c(Nc3cccc4ccccc34)cccc2c1" : 11.2

// growth value for "NCc1cn2cc(Cl)sc2n1" : 95

// growth value for N=S(=O)(NC(=O)c1ccc(Cl)cc1Cl)c1ccc(Br)s1 (stereo unspecified) : 107

// growth value for "O=c1c2c3c(sc2n2c(CCl)nnc2n1Cc1ccccc1)CCCC3" : -65.2

// growth value for "CCCCNP1(NCCCC)=NP(NCCCC)(NCCCC)=NP(NCCCC)(NCCCC)=NP(NCCCC)(NCCCC)=N1" : -26.4

Next:
// growth value for O=[N+]([O-])c1cccc(C2CC(c3ccccc3)=Nc3ccccc3S2)c1 (stereo unspecified) : 12.2

* * *

Tested on: UO-31 renal
Test: NCI-60 one-dose screen, 48 h
Details: 10 µM unless noted
About 83,000 compounds went through this panel and 20% of them were active in at least one assay; those are over-represented in the sample as a whole. Active and inactive are the calls of the source. The calls were made as follows: active = growth percent below 10; inactive = the rest.
Answer with one of the outcomes active, inactive

Name the outcome recorded for "CNC(=S)N/N=C/CSC/C=N/NC(=S)NC" in the assay.
inactive

Next:
Name the outcome recorded for "Cc1cccc(NC(=O)c2sc3nc4c(cc3c2N)C(=O)CCC4)c1" in the assay.
inactive

* * *

# growth per entry
Test system: HS 578T breast
Test: NCI-60 one-dose screen, 48 h (100 = growth as untreated, 0 = no growth, -100 = all killed)
Conditions: 10 µM unless noted
The panel holds about 83,000 compounds, 20% with a hit somewhere; the sample as a whole holds those more often.
State just the number; it will be interpreted in %.

Before answering, review these 6 worked examples.
// growth value for "O=C(COCc1c(-c2ccccc2)no[n+]1[O-])Nc1ccc(C(=O)/C=C/c2ccc3c(c2)OCO3)cc1" : 101

// growth value for "Nc1c(C(=O)Nc2cccc3c2OCCO3)sc2nc3c(cc12)C(=O)CCC3" : 29.5

// growth value for "O=C(Nc1cccc2[nH]c(C(F)(F)F)nc12)c1ccc(Br)cc1F" : 70.4

// growth value for CCN(CC)CC(O)c1cc(-c2ccc(Cl)cc2)nc2c(C)c(Cl)ccc12 (stereo unspecified) : -62.4

// growth value for "CCOC(=O)c1c2c(n3ccc(NC(=O)CCN4CCCCC4)cc13)C(=O)c1ncccc1C2=O" : 40.2

// growth value for "CC[C@H](CO)Nc1nc(NCc2ccccc2)n2ncc(C(C)C)c2n1" : 7.24

Next:
// growth value for "CCCCCCCCCCNC(=O)CCl" : 84.6

// growth value for CCCCCCCCCCCCS(=O)CC(C)O (stereo unspecified) : 101

* * *

System: HCT-15 colon
Experiment: NCI-60 one-dose screen, 48 h
Settings: 10 µM unless noted
About 83,000 compounds went through this panel and 20% of them were active in at least one assay; those are over-represented in the sample as a whole. Calls of active or inactive are those of the source. Rule for the calls: active = growth percent below 10; inactive = the rest.
Answer with one of the outcomes Yes for active, No for inactive

As a guide, the following entries are already answered.
Name the outcome recorded for O=C(NC(Cc1ccccc1)C(=O)CCl)OCc1ccccc1 (stereo not given) in the assay.
No

Name the outcome recorded for "COC(/C=C/c1ccc([N+](=O)[O-])cc1)OC" in the assay.
No

Name the outcome recorded for "CCOC(=O)c1c2c(n3ccc(NC(=O)CCN4CCOCC4)cc13)C(=O)c1ncccc1C2=O" in the assay.
No

Name the outcome recorded for "CNC(=O)c1cc(Oc2ccc3nc(NC(=O)Nc4ccc(N5CCC(N(C)C)CC5)cc4)sc3c2)ccn1" in the assay.
No

Name the outcome recorded for "O=c1c2cccc3c(NC4CCCCC4)ccc(c32)c2nc3ccccc3n12" in the assay.
No

Name the outcome recorded for "COc1cc(-c2nc3ccccc3s2)ccc1NC(=O)COc1ccc(Cl)cc1" in the assay.
No

Name the outcome recorded for "NCc1cn2cc(Cl)sc2n1" in the assay.
No

Name the outcome recorded for "COc1ccc(CN2C(=O)/C(=C\c3cc(OC)c(OC)c(OC)c3)c3cc(OC)ccc32)cc1" in the assay.
Yes

Next:
Name the outcome recorded for CCC(c1ccccc1)C(CC)c1ccc(O)c(O)c1 (stereo not given) in the assay.
No

Name the outcome recorded for "CNc1nc(C)c(-c2nc(Nc3cccc(S(N)(=O)=O)c3)ncc2F)s1" in the assay.
Yes

Name the outcome recorded for "CNCCCn1c2c(c3ccc([N+](=O)[O-])cc3c1=O)C(=O)c1cc(OC)cnc1-2" in the assay.
Yes

* * *

System: MALME-3M melanoma
Test: NCI-60 one-dose screen, 48 h (100 = growth as untreated, 0 = no growth, -100 = all killed)
Details: 10 µM unless noted
The panel holds about 83,000 compounds, 20% with a hit somewhere; the sample as a whole holds those more often.
# growth per entry
State just the number; it will be interpreted in %.

Before answering, review these 8 worked examples.
// growth value for CCN(CC)CC(O)c1cc(-c2ccc(Cl)cc2)nc2c(C)c(Cl)ccc12 (centres undefined) : -64

// growth value for "O=C(O)c1cccnc1Br" : 109

// growth value for "COc1ccc(-c2cn3c(ccc4ccccc43)n2)cc1" : 106

// growth value for "CCOC(=O)c1cnc2ccc(OC)cc2c1Nc1cccc(S(=O)(=O)NC)c1" : 105

// growth value for "O=C(COc1cccc(/C=C2/Oc3ccccc3C2=O)c1)Nc1nccs1" : -71

// growth value for "CNC(=O)c1cc(Oc2ccc3nc(NC(=O)Nc4ccc(CN5CCOCC5)c(C(F)(F)F)c4)sc3c2)ccn1" : 8.17

// growth value for Cc1cc2c(cc1C)NC1=C(N2)OC(c2c3ccccc3cc3ccccc23)C1=O (centres undefined) : 13.9

// growth value for "CCCCCCCCOC(=O)CC[C@@H](C)[C@H]1CC[C@H]2[C@@H]3[C@H](OC(=O)CCN)C[C@@H]4C[C@H](OC(=O)CCN)CC[C@]4(C)[C@H]3C[C@H](OC(=O)CCN)[C@]12C" : 67.8

Next:
// growth value for "O=C(Nc1ccc(Oc2ccc(F)cc2)c(Cl)c1)c1cccnc1" : 103

* * *

Tested on: HCT-116 colon
Experiment: NCI-60 one-dose screen, 48 h (100 = growth as untreated, 0 = no growth, -100 = all killed)
Conditions: 10 µM unless noted
Compounds without any hit were thinned out: in the full panel of roughly 83,000, 20% have a hit.
parameter: growth (%)
State just the number; it will be interpreted in %.

// growth value for "Cc1cc(N/N=C/c2nc(-c3ccc(Cl)cc3)oc2C)c2cc(Cl)ccc2n1" : -47.1

// growth value for "O=C(/C=C\c1ccc2ccccc2n1)c1cc(Cl)ccc1O" : 48.6

// growth value for "O=C1/C(=C/c2ccc(F)cc2)CN(C(=O)CCN2CCC(=NO)CC2)C/C1=C\c1ccc(F)cc1" : -65.6

// growth value for "CN(C)CCOc1ccc(-c2nc3ccc(-c4nc5ccc(N6CCN(C)CC6)cc5[nH]4)cc3[nH]2)cc1" : 48.3

// growth value for "O=C(CO[N+](=O)[O-])Nc1ccc(C(=O)/C=C/c2ccc(Cl)cc2)cc1" : -49.2

Next:
// growth value for "COc1ccc(-n2cc(-c3ccccc3)c3c(SCC(=O)N/N=C/c4ccc([N+](=O)[O-])cc4)ncnc32)cc1" : 105

// growth value for "Nc1cc2ccncc2c2ccccc12" : 38.3

// growth value for "CSc1ccc(N=C=C(c2ccccc2)c2ccccc2)cc1" : 89.3

// growth value for COc1ccc(C2Nc3ccccc3-n3cccc32)cc1 (stereo unspecified) : 94

// growth value for "Cc1ccc2c(c1)C(=O)c1c-2c(OCCCN(C)C)nc2ccccc12" : 21

// growth value for "CC[C@H](Nc1cc(C)nc(N)n1)c1nc2cccc(NCc3ccc(C(=O)NO)cc3)c2c(=O)n1-c1ccccc1" : -18.7

// growth value for "Cc1cc(=O)oc2cc(Oc3nc(-c4ccc(Cl)cc4)cn4c(-c5ccc(Cl)cc5)cnc34)ccc12" : 92.1

// growth value for "O=[N+]([O-])c1cccc(-c2nc3sccn3c2-c2ccnc(NCCCNS(=O)(=O)c3ccc(F)cc3)n2)c1" : 4.43

// growth value for "CCCCCCCCCCCCCCCC[N+]1(CC)CCCC1" : -46.4

// growth value for "COc1ccc(-c2cc(=O)[nH]c3c(OC)c4ccccc4c(OC)c23)cc1" : 12.1

// growth value for O=C(NC(Cc1ccccc1)C(=O)CCl)OCc1ccccc1 (stereo unspecified) : 45.9

// growth value for "COc1cccc(NC(=O)c2sc3nc4c(cc3c2N)CN(Cc2ccccc2)CC4)c1" : 58.1

// growth value for "CCOC(=O)C(=Cc1ccccc1F)C(=O)OCC" : 75.1

// growth value for "COc1ccc2nc3cc(Cl)ccc3c(N3CCN(c4ccnc(N5CCN(C)CC5)n4)CC3)c2c1" : -62.4

// growth value for "COc1cc(NCCCCCN=C(N)NC(N)=NC(C)C)c2ncccc2c1" : -4.52

// growth value for "O=C(CN1CCN(c2cc3c(cc2F)c(=O)c(C(=O)N/N=C/c2ccccc2)cn3C2CC2)CC1)N/N=C\c1ccccc1" : 70.7

// growth value for "CCC(=O)Oc1ccc(/C(=C(\C)c2ccccc2)c2ccc(OCCN(CC)CC)cc2)cc1" : 62.1
